Observed log10(IC50), system p45MEK (GST-MEK) (Homo sapiens).
Form field - Quantity: IC50; Unit: nM; Scale: log10

MOL: CC=CCONC(=O)c1ccc(F)c(F)c1Nc1ccc(I)cc1C
log10(IC50): 1.54

MOL: Cc1cc(I)ccc1Nc1c(C(=O)NOCC#Cc2ccccc2F)cc(Br)c(F)c1F
log10(IC50): 0.30

Lab note: molecule Cc1cc(I)ccc1Nc1c(C(=O)NOCCN2CCOCC2)cc(Br)c(F)c1F tested on p45MEK (GST-MEK) (Homo sapiens); recorded log10(IC50) was 1.18

Lab note: molecule Cc1cc(Br)ccc1Nc1c(C(=O)NOCc2cccs2)ccc(F)c1F tested on p45MEK (GST-MEK) (Homo sapiens); recorded log10(IC50) was 2.45

Lab note: molecule CCCONC(=O)c1ccc(F)c(F)c1Nc1ccc(Br)cc1C tested on p45MEK (GST-MEK) (Homo sapiens); recorded log10(IC50) was 2.68

Lab note: molecule Cc1cc(I)ccc1Nc1c(C(=O)NOCC#Cc2ccccc2F)ccc(F)c1F tested on p45MEK (GST-MEK) (Homo sapiens); recorded log10(IC50) was 1.75

Lab note: molecule Cc1cc(I)ccc1Nc1c(C(=O)NOCC2CCCCC2)cc(Br)c(F)c1F tested on p45MEK (GST-MEK) (Homo sapiens); recorded log10(IC50) was 1.41
